tested on: S. aureus (ATCC 25293); assay: In vitro anti-S. aureus CFU assay; type: cell-based, Staphylococcus aureus; details: peptide 0.128 mg/mL + ZnCl2 (0.9:1), 3 h, pH 5.4; per 0.1 mL
Residues, ends and D or L forms follow the SMILES beside them.
A collection of molecules and their measured mean CFU number ± S.D.
Output spec: scalar in CFU, unitless text.

[[record]]
molecule = "CC[C@H](C)[C@H](NC(=O)[C@H](C)NC(=O)[C@@H](NC(C)=O)C(C)C)C(=O)N[C@@H](C)C(=O)N[C@@H](CC(C)C)C(=O)N[C@@H](CCCCN)C(=O)N[C@@H](C)C(=O)N[C@@H](C)C(=O)N[C@@H](Cc1c[nH]cn1)C(=O)N[C@@H](Cc1ccc(O)cc1)C(=O)N[C@@H](Cc1c[nH]cn1)C(=O)N[C@H](C(=O)N[C@@H](Cc1c[nH]cn1)C(=O)N[C@@H](CCCCN)C(=O)N[C@@H](CCC(=O)O)C(=O)O)[C@@H](C)O [L1, Ac-VAIALKAAHYHTHKE] (Ac-VAIALKAAHYHTHKE-OH)"
readout_name = "mean CFU number ± S.D."
observed_value = 87


What does the record list as mean CFU number ± S.D. for CC[C@H](C)[C@H](NC(=O)[C@H](C)NC(=O)[C@@H](N)C(C)C)C(=O)N[C@@H](C)C(=O)N[C@@H](CC(C)C)C(=O)N[C@@H](CCCCN)C(=O)N[C@@H](C)C(=O)N[C@@H](C)C(=O)N[C@@H](Cc1c[nH]cn1)C(=O)N[C@@H](Cc1ccc(O)cc1)C(=O)N[C@@H](Cc1c[nH]cn1)C(=O)N[C@H](C(=O)N[C@@H](Cc1c[nH]cn1)C(=O)N[C@@H](CCCCN)C(=O)N[C@@H](CCC(=O)O)C(=O)O)[C@@H](C)O [WT, VAIALKAAHYHTHKE, reference compound] (H-VAIALKAAHYHTHKE-OH) ? 96

Field request: mean CFU number ± S.D. | item: CC[C@H](C)[C@H](NC(=O)[C@H](C)NC(=O)[C@@H](NC(C)=O)C(C)C)C(=O)N[C@@H](C)C(=O)N[C@@H](CC(C)C)C(=O)N[C@@H](CCCCN)C(=O)N[C@@H](C)C(=O)N[C@@H](C)C(=O)N[C@@H](Cc1c[nH]cn1)C(=O)N[C@@H](Cc1ccc(O)cc1)C(=O)N[C@@H](Cc1c[nH]cn1)C(=O)N[C@H](C(=O)N[C@@H](Cc1c[nH]cn1)C(=O)N[C@@H](CCCCN)C(=O)N[C@@H](CCC(=O)O)C(N)=O)[C@@H](C)O [L2, Ac-VAIALKAAHYHTHKE-NH2] (Ac-VAIALKAAHYHTHKE-NH2) 82

----------
test system: C. albicans (ATCC 10231); test: In vitro antifungal CFU assay; type: cell-based, Candida albicans; conditions: peptide 0.128 mg/mL + CuCl2 (0.9:1), 3 h, pH 5.4
Residues, ends and D or L forms follow the SMILES beside them.
The reader will find reported CFU decrease/increase with respect to untreated controls values listed item by item below.
Only the number, expressed in %, is required.

Solved cases (2 shown):
[[record]]
molecule = "CC[C@H](C)[C@H](NC(=O)[C@H](C)NC(=O)[C@@H](NC(C)=O)C(C)C)C(=O)N[C@@H](C)C(=O)N[C@@H](CC(C)C)C(=O)N[C@@H](CCCCN)C(=O)N[C@@H](C)C(=O)N[C@@H](C)C(=O)N[C@@H](Cc1c[nH]cn1)C(=O)N[C@@H](Cc1ccc(O)cc1)C(=O)N[C@@H](Cc1c[nH]cn1)C(=O)N[C@H](C(=O)N[C@@H](Cc1c[nH]cn1)C(=O)N[C@@H](CCCCN)C(=O)N[C@@H](CCC(=O)O)C(=O)O)[C@@H](C)O [L1, Ac-VAIALKAAHYHTHKE] (Ac-VAIALKAAHYHTHKE-OH)"
observed_value = -27.3

[[record]]
molecule = "CC[C@H](C)[C@H](NC(=O)[C@H](C)NC(=O)[C@@H](N)C(C)C)C(=O)N[C@@H](C)C(=O)N[C@@H](CC(C)C)C(=O)N[C@@H](CCCCN)C(=O)N[C@@H](C)C(=O)N[C@@H](C)C(=O)N[C@@H](Cc1c[nH]cn1)C(=O)N[C@@H](Cc1ccc(O)cc1)C(=O)N[C@@H](Cc1c[nH]cn1)C(=O)N[C@H](C(=O)N[C@@H](Cc1c[nH]cn1)C(=O)N[C@@H](CCCCN)C(=O)N[C@@H](CCC(=O)O)C(=O)O)[C@@H](C)O [WT, VAIALKAAHYHTHKE, reference compound] (H-VAIALKAAHYHTHKE-OH)"
observed_value = -35


What does the record list as CFU decrease/increase with respect to untreated controls for CC[C@H](C)[C@H](NC(=O)[C@H](C)NC(=O)[C@@H](NC(C)=O)C(C)C)C(=O)N[C@@H](C)C(=O)N[C@@H](CC(C)C)C(=O)N[C@@H](CCCCN)C(=O)N[C@@H](C)C(=O)N[C@@H](C)C(=O)N[C@@H](Cc1c[nH]cn1)C(=O)N[C@@H](Cc1ccc(O)cc1)C(=O)N[C@@H](Cc1c[nH]cn1)C(=O)N[C@H](C(=O)N[C@@H](Cc1c[nH]cn1)C(=O)N[C@@H](CCCCN)C(=O)N[C@@H](CCC(=O)O)C(N)=O)[C@@H](C)O [L2, Ac-VAIALKAAHYHTHKE-NH2] (Ac-VAIALKAAHYHTHKE-NH2) ? -7

----------
conditions: T = 298 K, I = 0.1 M (KCl); charges omitted
Residues, ends and D or L forms follow the SMILES beside them.
Reported logβ [ZnHL] values for the following compounds.

[[record]]
compound = "CC[C@H](C)[C@H](NC(=O)[C@H](C)NC(=O)[C@@H](NC(C)=O)C(C)C)C(=O)N[C@@H](C)C(=O)N[C@@H](CC(C)C)C(=O)N[C@@H](CCCCN)C(=O)N[C@@H](C)C(=O)N[C@@H](C)C(=O)N[C@@H](Cc1c[nH]cn1)C(=O)N[C@@H](Cc1ccc(O)cc1)C(=O)N[C@@H](Cc1c[nH]cn1)C(=O)N[C@H](C(=O)N[C@@H](Cc1c[nH]cn1)C(=O)N[C@@H](CCCCN)C(=O)N[C@@H](CCC(=O)O)C(N)=O)[C@@H](C)O [L2, Ac-VAIALKAAHYHTHKE-NH2] (Ac-VAIALKAAHYHTHKE-NH2)"
readout_name = "logβ [ZnHL]"
observed_value = "14.15(4)"

[[record]]
compound = "CC[C@H](C)[C@H](NC(=O)[C@H](C)NC(=O)[C@@H](N)C(C)C)C(=O)N[C@@H](C)C(=O)N[C@@H](CC(C)C)C(=O)N[C@@H](CCCCN)C(=O)N[C@@H](C)C(=O)N[C@@H](C)C(=O)N[C@@H](Cc1c[nH]cn1)C(=O)N[C@@H](Cc1ccc(O)cc1)C(=O)N[C@@H](Cc1c[nH]cn1)C(=O)N[C@H](C(=O)N[C@@H](Cc1c[nH]cn1)C(=O)N[C@@H](CCCCN)C(=O)N[C@@H](CCC(=O)O)C(N)=O)[C@@H](C)O [L3, VAIALKAAHYHTHKE-NH2] (H-VAIALKAAHYHTHKE-NH2)"
readout_name = "logβ [ZnHL]"
observed_value = "19.40(5)"


Which value of logβ [ZnHL] has been reported for CC[C@H](C)[C@H](NC(=O)[C@H](C)NC(=O)[C@@H](N)C(C)C)C(=O)N[C@@H](C)C(=O)N[C@@H](CC(C)C)C(=O)N[C@@H](CCCCN)C(=O)N[C@@H](C)C(=O)N[C@@H](C)C(=O)N[C@@H](Cc1c[nH]cn1)C(=O)N[C@@H](Cc1ccc(O)cc1)C(=O)N[C@@H](Cc1c[nH]cn1)C(=O)N[C@H](C(=O)N[C@@H](Cc1c[nH]cn1)C(=O)N[C@@H](CCCCN)C(=O)N[C@@H](CCC(=O)O)C(=O)O)[C@@H](C)O [WT, VAIALKAAHYHTHKE, reference compound] (H-VAIALKAAHYHTHKE-OH) in the records? 20.11(6)

----------
test system: E. coli (ATCC 25922); experiment: In vitro anti-E. coli CFU assay; type: cell-based, Escherichia coli; conditions: peptide alone 0.032 mg/mL, 24 h, pH 5.4
Residues, ends and D or L forms follow the SMILES beside them.
Collected CFU decrease/increase with respect to untreated controls values appear next to each entry.

[[record]]
compound = "CC[C@H](C)[C@H](NC(=O)[C@H](C)NC(=O)[C@@H](NC(C)=O)C(C)C)C(=O)N[C@@H](C)C(=O)N[C@@H](CC(C)C)C(=O)N[C@@H](CCCCN)C(=O)N[C@@H](C)C(=O)N[C@@H](C)C(=O)N[C@@H](Cc1c[nH]cn1)C(=O)N[C@@H](Cc1ccc(O)cc1)C(=O)N[C@@H](Cc1c[nH]cn1)C(=O)N[C@H](C(=O)N[C@@H](Cc1c[nH]cn1)C(=O)N[C@@H](CCCCN)C(=O)N[C@@H](CCC(=O)O)C(N)=O)[C@@H](C)O [L2, Ac-VAIALKAAHYHTHKE-NH2] (Ac-VAIALKAAHYHTHKE-NH2)"
observed_value = "+9%"


Give CFU decrease/increase with respect to untreated controls (E. coli (ATCC 25922)) of the following compound: CC[C@H](C)[C@H](NC(=O)[C@H](C)NC(=O)[C@@H](NC(C)=O)C(C)C)C(=O)N[C@@H](C)C(=O)N[C@@H](CC(C)C)C(=O)N[C@@H](CCCCN)C(=O)N[C@@H](C)C(=O)N[C@@H](C)C(=O)N[C@@H](Cc1c[nH]cn1)C(=O)N[C@@H](Cc1ccc(O)cc1)C(=O)N[C@@H](Cc1c[nH]cn1)C(=O)N[C@H](C(=O)N[C@@H](Cc1c[nH]cn1)C(=O)N[C@@H](CCCCN)C(=O)N[C@@H](CCC(=O)O)C(=O)O)[C@@H](C)O [L1, Ac-VAIALKAAHYHTHKE] (Ac-VAIALKAAHYHTHKE-OH) +1%

What reported CFU decrease/increase with respect to untreated controls corresponds to CC[C@H](C)[C@H](NC(=O)[C@H](C)NC(=O)[C@@H](N)C(C)C)C(=O)N[C@@H](C)C(=O)N[C@@H](CC(C)C)C(=O)N[C@@H](CCCCN)C(=O)N[C@@H](C)C(=O)N[C@@H](C)C(=O)N[C@@H](Cc1c[nH]cn1)C(=O)N[C@@H](Cc1ccc(O)cc1)C(=O)N[C@@H](Cc1c[nH]cn1)C(=O)N[C@H](C(=O)N[C@@H](Cc1c[nH]cn1)C(=O)N[C@@H](CCCCN)C(=O)N[C@@H](CCC(=O)O)C(N)=O)[C@@H](C)O [L3, VAIALKAAHYHTHKE-NH2] (H-VAIALKAAHYHTHKE-NH2) on E. coli (ATCC 25922)? +17%

Which measured CFU decrease/increase with respect to untreated controls belongs to CC[C@H](C)[C@H](NC(=O)[C@H](C)NC(=O)[C@@H](N)C(C)C)C(=O)N[C@@H](C)C(=O)N[C@@H](CC(C)C)C(=O)N[C@@H](CCCCN)C(=O)N[C@@H](C)C(=O)N[C@@H](C)C(=O)N[C@@H](Cc1c[nH]cn1)C(=O)N[C@@H](Cc1ccc(O)cc1)C(=O)N[C@@H](Cc1c[nH]cn1)C(=O)N[C@H](C(=O)N[C@@H](Cc1c[nH]cn1)C(=O)N[C@@H](CCCCN)C(=O)N[C@@H](CCC(=O)O)C(=O)O)[C@@H](C)O [WT, VAIALKAAHYHTHKE, reference compound] (H-VAIALKAAHYHTHKE-OH) , tested on E. coli (ATCC 25922)? -7%
